- Target: TRPML1 (Homo sapiens)
- Sequence (Q9GZU1 whole entry L15A/L16A/L577A/L578A, form open): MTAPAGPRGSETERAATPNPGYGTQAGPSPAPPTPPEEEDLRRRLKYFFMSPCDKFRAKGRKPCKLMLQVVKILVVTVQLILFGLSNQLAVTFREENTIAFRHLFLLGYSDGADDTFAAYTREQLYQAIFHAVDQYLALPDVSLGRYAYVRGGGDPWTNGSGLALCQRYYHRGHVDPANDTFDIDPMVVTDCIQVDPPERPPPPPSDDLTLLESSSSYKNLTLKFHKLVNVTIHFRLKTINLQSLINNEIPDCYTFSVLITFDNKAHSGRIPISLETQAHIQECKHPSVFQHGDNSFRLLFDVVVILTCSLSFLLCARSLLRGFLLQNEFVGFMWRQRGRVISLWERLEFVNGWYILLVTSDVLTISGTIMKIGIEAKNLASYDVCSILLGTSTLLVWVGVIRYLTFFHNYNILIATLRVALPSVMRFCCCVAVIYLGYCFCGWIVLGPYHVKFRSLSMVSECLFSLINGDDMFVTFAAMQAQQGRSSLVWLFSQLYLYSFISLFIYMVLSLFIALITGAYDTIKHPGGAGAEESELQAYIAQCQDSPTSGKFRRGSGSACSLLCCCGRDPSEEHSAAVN
- Measurement Protocol: Fluorescent TRPML1 assay (Fluo4-AM calcium fluorescence in doxycycline-induced HEK-293 Trex cells)
- Type: cell-based
Parameter: EC50. Scope: all listed entries.

Reference set, count: 3
# Molecule, Measured Value
measured = [
    ("Cc1cn(-c2ccccc2)c2ncnc(N3C[C@@H](C)N(C(=O)OC(C)(C)C)C[C@@H]3C)c12", "100 to 500 nM"),
    ("Cc1cn(-c2cncc(C#N)c2)c2ncnc(N3CCN(C(=O)OC(C)(C)C)C[C@@H]3C)c12", "100 to 500 nM"),
    ("C[C@@H]1CN(c2nccc3c2c(C2CC2)cn3-c2cccc(F)c2)CCN1C(=O)OC(C)(C)C", "< 100 nM"),
]

Given the entry Cc1cn(-c2ccccn2)c2ncnc(N3CCN(C(=O)OC(C)(C)C)C[C@@H]3C)c12 , what EC50 was observed with TRPML1 (Homo sapiens)?
< 100 nM
